Listing of entries alongside the reported Reactivity (OD 492 nm).
Target: T1, HCV bt-151-171 (Peptide 3, HCVc 151-171) (Hepatitis C virus (numbering per HCV-1), biotin (carboxy-terminal per; N-terminal per))
T1 peptide: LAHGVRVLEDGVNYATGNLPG
Assay: EIA, captured mAb + biotin peptide
The reply should contain only the number, in OD units.

Consider the worked cases shown below.
Enquiry: Fill blank: measured Reactivity (OD 492 nm) of the binder HCV 208A-210 (antibody, V domains shown) VH: QVQLQQSGPELVKPGASMRISCKASGYTFTSYYVHWIKQRPGQGLEWIGCIYPGDVNTDYNEKFKGKATLTADKSSSTAYMQVSTLTSEDSAIYFCVLYYYGSFAYWGQGTLVTVSA VL: EIVLTQSPAITAASLGQNVTITCRASSSVSYMHWYRQKSGTSPQLWIYEISRRASGVPARFRASGSGTSYSLTISSMEAEDAAIYYCQQWNYPLTFGAGTKLEVKR is ____.
Return: 0.05

Enquiry: Input HCV 208B-547 (antibody, V domains shown) VH: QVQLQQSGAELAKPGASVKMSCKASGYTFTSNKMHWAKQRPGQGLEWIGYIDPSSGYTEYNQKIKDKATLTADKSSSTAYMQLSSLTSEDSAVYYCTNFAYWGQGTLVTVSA VL: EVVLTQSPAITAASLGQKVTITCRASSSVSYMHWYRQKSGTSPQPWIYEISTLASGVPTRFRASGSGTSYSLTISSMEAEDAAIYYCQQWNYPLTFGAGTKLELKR
Return: 2.9

Moving on to the next binder.
Enquiry: # lookup: Reactivity (OD 492 nm) of HCV 208B-589 (antibody, V domains shown) VH: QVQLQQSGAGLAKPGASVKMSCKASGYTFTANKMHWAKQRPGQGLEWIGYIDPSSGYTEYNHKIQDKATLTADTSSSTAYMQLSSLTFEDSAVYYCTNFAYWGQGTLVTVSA VL: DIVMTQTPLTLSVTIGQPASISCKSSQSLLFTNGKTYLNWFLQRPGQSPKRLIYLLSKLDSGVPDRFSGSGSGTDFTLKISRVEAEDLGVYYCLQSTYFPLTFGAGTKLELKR
Return: 2.85
